Test: Tissue distribution of SGC003F in rats with or without tariquidar
Assay type: in vivo
Settings: male, SD, rat, brain, po, 1 mg/kg, SGC003F p.o. 1 mg/kg, with tariquidar i.v. 7.5 mg/kg, read-out: AUC(0–24h), Brain

Molecule	AUC(0-t) / ng·h/mL
COC(=O)Nc1c(N)nc(-c2nn(Cc3sccc3F)c3ncc(F)cc23)nc1N [SGC003F]	31.2

###

Assay: Plasma pharmacokinetics of SGC003F in rats with or without tariquidar
Type: in vivo, rat
Settings: male, Sprague-Dawley, rat, plasma, po, 1 mg/kg, SGC003F p.o. 1 mg/kg, single
Readout: half-life

Compound	Recorded Measurement
COC(=O)Nc1c(N)nc(-c2nn(Cc3sccc3F)c3ncc(F)cc23)nc1N [SGC003F]	3.45 h
